# measured_on: Muscarinic acetylcholine receptor M3 (Cavia porcellus)
# Sequence (Q8VH26 whole entry): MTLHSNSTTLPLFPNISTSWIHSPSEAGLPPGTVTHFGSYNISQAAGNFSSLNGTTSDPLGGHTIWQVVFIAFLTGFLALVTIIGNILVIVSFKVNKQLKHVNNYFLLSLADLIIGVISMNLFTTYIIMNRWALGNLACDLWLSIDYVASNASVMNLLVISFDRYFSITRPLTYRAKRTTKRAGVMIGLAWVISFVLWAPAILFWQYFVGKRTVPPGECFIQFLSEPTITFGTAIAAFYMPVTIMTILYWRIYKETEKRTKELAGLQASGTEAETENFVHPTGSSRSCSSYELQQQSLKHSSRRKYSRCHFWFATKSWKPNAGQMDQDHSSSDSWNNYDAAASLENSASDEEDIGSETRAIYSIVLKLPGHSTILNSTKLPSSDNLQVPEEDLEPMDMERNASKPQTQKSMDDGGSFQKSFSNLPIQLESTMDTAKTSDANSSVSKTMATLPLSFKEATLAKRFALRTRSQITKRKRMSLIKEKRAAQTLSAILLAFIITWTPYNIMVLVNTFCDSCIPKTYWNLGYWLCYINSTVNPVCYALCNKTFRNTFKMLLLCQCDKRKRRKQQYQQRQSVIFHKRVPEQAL
pKd: −log10 of the molar value.
Threshold rule: pKd greater than or equal to 5 is condition met; below that, condition not met.

mol_smiles: Cc1cc(OCC#CCN2CCCC2)no1.O=C(O)/C=C/C(=O)O
class_name: condition not met
//
mol_smiles: Cc1cc(OCC#CC[N+](C)(C)C)no1.[I-]
class_name: condition met
//
mol_smiles: Cc1cc(OCC#CC[N+]2(C)CCCC2)no1.[I-]
class_name: condition met
//
mol_smiles: Cc1cc(OCC#CCN(C)C)no1.O=C(O)/C=C/C(=O)O
class_name: condition not met
//
mol_smiles: C(#CCN1CCCCC1)COC1=NOCC1.O=C(O)C(=O)O
class_name: condition not met
//
mol_smiles: C(#CCOc1ccon1)CO/N=C1\CN2CCC1CC2.O=C(O)/C=C/C(=O)O
class_name: condition met
//
mol_smiles: C[N+]1(CC#CCOC2=NOCC2)CCCCC1.[I-]
class_name: condition met

----------
Listed compounds paired with reported Intrinsic activity
# Species: Oryctolagus cuniculus
# experiment_summary: Intrinsic activity at muscarinic M1 receptor in electrically stimulated New Zealand rabbit vas deferens relative to McN-A-343
# Assay type: tissue-based

mol_smiles: C(#CCN1CCCCC1)COC1=NOCC1.O=C(O)C(=O)O
Intrinsic activity: 0
--
mol_smiles: Cc1cc(OCC#CCN(C)C)no1.O=C(O)/C=C/C(=O)O
Intrinsic activity: 0.6
--
mol_smiles: Cc1cc(OCC#CC[N+](C)(C)C)no1.[I-]
Intrinsic activity: 0.9
--
mol_smiles: C[N+](C)(C)CC#CCOC(=O)Nc1cccc(Cl)c1.[Cl-]
Intrinsic activity: 1
--
mol_smiles: C[N+]1(CC#CCOC2=NOCC2)CCCCC1.[I-]
Intrinsic activity: 0.4
--
mol_smiles: C(#CCOc1ccon1)CO/N=C1\CN2CCC1CC2.O=C(O)/C=C/C(=O)O
Intrinsic activity: 0
--
mol_smiles: C(#CCN1CCCC1)COc1cc(-c2ccccc2)on1
Intrinsic activity: 1
--
mol_smiles: Cc1cc(OCC#CC[N+]2(C)CCCC2)no1.[I-]
Intrinsic activity: 0
--
mol_smiles: O=C(O)C(=O)O.O=C1CCON1CC#CCN1CCCCC1
Intrinsic activity: 0
--
mol_smiles: C[N+]1(CC#CCOc2cc(-c3ccccc3)on2)CCCC1.[I-]
Intrinsic activity: 0
--
mol_smiles: Cc1cc(OCC#CCN2CCCC2)no1.O=C(O)/C=C/C(=O)O
Intrinsic activity: 0
--
mol_smiles: C[N+]12CCC(CC1)/C(=N/OCC#CCOc1ccon1)C2.[I-]
Intrinsic activity: 0.9

----------
# experiment_summary: Binding affinity to muscarinic M2 receptor in electrically stimulated guinea-pig left atrium
# Type: tissue-based, Cavia porcellus, Cardiac atrium
List of pKd values.

molecule: Cc1cc(OCC#CC[N+](C)(C)C)no1.[I-]
pKd: 7.03

molecule: CC(C[N+](C)(C)C)OC(N)=O (configuration not stated) [BETHANECHOL]
pKd: 5.37

molecule: C(#CCN1CCCCC1)COC1=NOCC1.O=C(O)C(=O)O
pKd: 6.22

molecule: C(#CCOc1ccon1)CO/N=C1\CN2CCC1CC2.O=C(O)/C=C/C(=O)O
pKd: 5.97

molecule: C[N+]1(CC#CCOC2=NOCC2)CCCCC1.[I-]
pKd: 6.74

molecule: Cc1cc(OCC#CCN(C)C)no1.O=C(O)/C=C/C(=O)O
pKd: 3.56

molecule: Cc1cc(OCC#CC[N+]2(C)CCCC2)no1.[I-]
pKd: 6.72

Attribution: ChEMBL document CHEMBL1137537
